- Tested on: TCCSUP bladder cancer cell line
- Assay Comment: Cytotoxicity, SRB assay, TCCSUP
- Type: cell-based, human
- Test Context: Homo sapiens, TCC-SUP, read-out: IC50 TCCSUP
Each record here notes measured pIC50.
In simple prose, pIC50 is minus the logarithm base ten of a concentration in moles per litre.

Look over these answered cases.
Molecule | pIC50
C[C@](O)(CSc1ccc(NC(=O)CBr)cc1)C(=O)Nc1ccc(C#N)c(C(F)(F)F)c1 | 5.42
C[C@](O)(CSc1ccc(NC(=O)CCl)cc1)C(=O)Nc1ccc(C#N)c(C(F)(F)F)c1 | 5.74

Data request: Returns the measured pIC50 for the input molecule. Input: CC(=O)O[C@H]1C(=O)[C@@]2(C)[C@H]([C@H](OC(=O)c3ccccc3)[C@]3(O)C[C@H](OC(=O)[C@H](O)[C@@H](NC(=O)c4ccccc4)c4ccccc4)C(C)=C1C3(C)C)[C@]1(OC(C)=O)CO[C@@H]1C[C@@H]2O [Taxol, reference compound]
Data returned: 8.37

====

We begin with a simple list: items and their reported pIC50.
- Test system: CV-1 control cell line
- Assay Comment: Cytotoxicity, SRB assay, CV-1 control
- Format: cell-based, African green monkey
- Test Context: Chlorocebus sabaeus, read-out: IC50 CV-1 (Control)
A value of pIC50 is the negative decimal logarithm of a concentration given in moles per litre.

Mol | pIC50
C[C@](O)(CSc1ccc(NC(=O)CBr)cc1)C(=O)Nc1ccc(C#N)c(C(F)(F)F)c1 | 4.97

Then this compound:
Data request: pIC50 for `C[C@](O)(CSc1ccc(NC(=O)CCl)cc1)C(=O)Nc1ccc(C#N)c(C(F)(F)F)c1` ?
Data returned: 5.57

====

- Tested on: CV-1 control cell line
- Assay Comment: Cytotoxicity, SRB assay, CV-1 control
- Assay type: cell-based, African green monkey
- Test Context: Chlorocebus sabaeus, 24 h, read-out: IC50 CV-1 24 hr treatment
Each record here notes measured IC50.
# unit: µM | format: bare number

Mol | Readout Units | Reported Measurement
C[C@](O)(CSc1ccc(NC(=O)CCl)cc1)C(=O)Nc1ccc(C#N)c(C(F)(F)F)c1 | µM | 6.2

Then there is this compound:
Data request: Given the compound `C[C@](O)(CSc1ccc(NC(=O)CBr)cc1)C(=O)Nc1ccc(C#N)c(C(F)(F)F)c1` , what is its reported IC50?
Data returned: 23.4

====

- Tested on: PC-3 bone metastatic prostate cancer cell line
- Assay Comment: Cytotoxicity, SRB assay, PC-3
- Assay type: cell-based, human
- Test Context: 4 day treatment, Example 3; read-out: IC50 PC-3 4 day treatment
Property Label: pIC50
Units for pIC50: none; it is -log10 of a concentration expressed in mol/L.

Data request: Look up pIC50 for this compound: O=c1[nH]cc(F)c(=O)[nH]1 [Compound 5-FU, reference compound]
Data returned: 4.96

====

- Test system: TSU prostate cancer cell line
- Assay Comment: Cytotoxicity, SRB assay, TSU
- Assay type: cell-based, human
- Test Context: Table 2A, Example 1; read-out: IC50 TSU
Property Label: IC50 (µM)
Please reply with the bare figure in µM and do not write the unit itself.

Data request: # get_value(readout= IC50, system= TSU prostate cancer cell line) for O=c1[nH]cc(F)c(=O)[nH]1 [Compound 5-FU, reference compound]
Data returned: 2.7

====

- Tested on: TSU prostate cancer cell line
- Assay Comment: Cytotoxicity, SRB assay, TSU
- Assay type: cell-based, human
- Test Context: Homo sapiens, read-out: IC50 TSU
- Experimental: The SRB Assay was used to determine cell number during cytotoxocity experiments. The following protocol was used: • 1. […] Experimental cultures were cultured in 96-well microtiter plates (200 uL growth medium per well; 1,000-200,000 cells per well). • 3. Cultures were fixed with 50 uL 50% TCA (4° C.). […] Absorbance was read at 540 nm. • * quickly performing rinsing process is to prevent desorption of protein-bound SRB • ** completely remove residual wash solution by sharply flicking plates over sink. […]
Property Label: pIC50
Conceptually, pIC50 converts a concentration in mol/L into minus its log10.

Reference set (3 entries):
Compound | pIC50
C[C@](O)(CSc1ccc(NC(=O)CBr)cc1)C(=O)Nc1ccc(C#N)c(C(F)(F)F)c1 | 6.22
CC(=O)O[C@H]1C(=O)[C@@]2(C)[C@H]([C@H](OC(=O)c3ccccc3)[C@]3(O)C[C@H](OC(=O)[C@H](O)[C@@H](NC(=O)c4ccccc4)c4ccccc4)C(C)=C1C3(C)C)[C@]1(OC(C)=O)CO[C@@H]1C[C@@H]2O [Taxol, reference compound] | 8.62
C[C@](O)(CSc1ccc(NC(=O)CCl)cc1)C(=O)Nc1ccc(C#N)c(C(F)(F)F)c1 | 5.82

// switching to the query compound
Data request: Lookup: pIC50 / TSU prostate cancer cell line / `C[C@](O)(COc1ccc(N=C=S)cc1)C(=O)Nc1ccc([N+](=O)[O-])c(C(F)(F)F)c1`
Data returned: 4.24

====

- Test system: CV-1 control cell line
- Assay Comment: Cytotoxicity, SRB assay, CV-1 control
- Type: cell-based, African green monkey
- Test Context: Chlorocebus sabaeus, 96 h; 4 day treatment, Example 2; read-out: IC50 CV-1 4 day treatment
Property Label: pIC50
Worth noting: pIC50 values are minus log10 of concentrations stated in mol/L.

Data request: Endpoint output: pIC50 of `C[C@@](O)(CBr)C(=O)Nc1ccc([N+](=O)[O-])c(C(F)(F)F)c1` . Value?
Data returned: 5.31

====

Catalogue of compounds with associated Enrichment factor DU 145
- Tested on: DU 145 cells
- Assay Comment: Induction of apoptosis, DU 145
- Format: cell-based, human

Known Enrichment factor DU 145 results, listed for orientation:
Mol | Enrichment factor DU 145
C[C@@](O)(CBr)C(=O)Nc1ccc([N+](=O)[O-])c(C(F)(F)F)c1 | 1.929
C[C@](O)(COc1ccc(NC(=O)CCl)cc1)C(=O)Nc1ccc([N+](=O)[O-])c(C(F)(F)F)c1 | 2.500
C[C@](O)(COc1ccc(NC(=O)CBr)cc1)C(=O)Nc1ccc([N+](=O)[O-])c(C(F)(F)F)c1 | 18.643

Okay, now this compound:
Data request: Please report the recorded Enrichment factor DU 145 for `C[C@](O)(COc1ccc(N=C=S)cc1)C(=O)Nc1ccc([N+](=O)[O-])c(C(F)(F)F)c1` .
Data returned: 5.071

====

- System: CV-1 control cell line
- Assay Comment: Cytotoxicity, SRB assay, CV-1 control
- Assay type: cell-based, African green monkey
- Test Context: Table 2B, Example 1; read-out: IC50 CV-1 (Control)
Property Label: IC50 (µM)
Give the quantity in µM, number only.

Data request: Fill blank: measured IC50 of the compound O=c1[nH]cc(F)c(=O)[nH]1 [Compound 5-FU, reference compound] is ____.
Data returned: 5.4

====

# IC50 per entry
- Tested on: PC-3 bone metastatic prostate cancer cell line
- Assay Comment: Cytotoxicity, SRB assay, PC-3
- Assay type: cell-based, human
- Test Context: Homo sapiens, 24 h, read-out: IC50 PC-3

Record excerpt, results attached:
Molecule | IC50
C[C@](O)(COc1ccc(N=C=S)cc1)C(=O)Nc1ccc([N+](=O)[O-])c(C(F)(F)F)c1 [Compound V] | 47.8 µM
C[C@](O)(COc1ccc(NC(=O)CBr)cc1)C(=O)Nc1ccc([N+](=O)[O-])c(C(F)(F)F)c1 [DJ 1-29] | 2.3 µM

Shift focus to the following entry.
Data request: Quick one: IC50 of C[C@](O)(COc1ccc(NC(=O)CCl)cc1)C(=O)Nc1ccc([N+](=O)[O-])c(C(F)(F)F)c1 [DJ 1-31] ?
Data returned: 5.4 µM

====

- Test system: AR-expressing LNCaP prostate cancer cell line
- Assay Comment: Cytotoxicity, SRB assay, LNCaP
- Format: cell-based, human
- Test Context: Homo sapiens, LNCaP, 144 h, read-out: IC50 LNCaP 6 day treatment
molecules and their reported IC50
Note: unit µM is implicit; provide only the numeric part.

Mol | Readout Units | IC50
C[C@@](O)(CBr)C(=O)Nc1ccc([N+](=O)[O-])c(C(F)(F)F)c1 | µM | 2.1

Data request: What value of IC50 on AR-expressing LNCaP prostate cancer cell line does `C[C@](O)(CSc1ccc(NC(=O)CBr)cc1)C(=O)Nc1ccc(C#N)c(C(F)(F)F)c1` have?
Data returned: 8.1

Data request: Could you share what IC50 was measured for `C[C@](O)(CSc1ccc(NC(=O)CCl)cc1)C(=O)Nc1ccc(C#N)c(C(F)(F)F)c1` , tested on AR-expressing LNCaP prostate cancer cell line?
Data returned: 1.7

Data request: Entry `C[C@](O)(COc1ccc(N=C=S)cc1)C(=O)Nc1ccc([N+](=O)[O-])c(C(F)(F)F)c1` , system AR-expressing LNCaP prostate cancer cell line: what IC50 was measured?
Data returned: 33.6
